# TESTED SYSTEM: T1, human TIGIT ECD-his (fusion protein of extracellular domain of human TIGIT and His-tag) (human)
# T1 construct: entry includes the signal peptide, limits not readable here
# T1 chain: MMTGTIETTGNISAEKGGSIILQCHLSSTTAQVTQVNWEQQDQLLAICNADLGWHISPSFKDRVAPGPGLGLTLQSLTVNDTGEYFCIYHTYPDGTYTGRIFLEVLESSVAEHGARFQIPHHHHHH
# RUN DESCRIPTION: BIAcore kinetics
Answer each item with its documented koff.
Give bare numbers, in s⁻¹.

Study these solved cases before continuing.
TIGIT-F2-002 (antibody, V domains shown, mouse hybridoma antibody; variable domains are those printed for the chimeric TIGIT-CHI-002 built from the mouse antibody; tie rests on the number 002 only; also called mouse antibody TIGIT-002) VH: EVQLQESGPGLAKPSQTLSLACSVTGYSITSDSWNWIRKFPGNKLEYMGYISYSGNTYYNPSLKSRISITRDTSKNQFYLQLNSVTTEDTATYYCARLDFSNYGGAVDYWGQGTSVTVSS VL: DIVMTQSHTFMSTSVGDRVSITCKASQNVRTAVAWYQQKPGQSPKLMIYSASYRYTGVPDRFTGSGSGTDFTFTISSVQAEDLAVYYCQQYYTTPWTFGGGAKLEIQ; 8.08e-05
TIGIT-F2-005 (antibody, V domains shown, mouse hybridoma antibody; variable domains as printed for TIGIT-CHI-005; tie rests on the number 005 only; also called mouse antibody TIGIT-005) VH: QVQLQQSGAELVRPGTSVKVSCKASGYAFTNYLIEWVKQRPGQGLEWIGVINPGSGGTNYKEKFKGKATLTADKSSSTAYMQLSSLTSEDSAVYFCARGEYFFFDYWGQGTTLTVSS VL: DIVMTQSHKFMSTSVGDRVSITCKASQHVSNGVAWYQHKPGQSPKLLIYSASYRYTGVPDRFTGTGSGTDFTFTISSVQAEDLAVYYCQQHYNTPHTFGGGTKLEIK; 4.47e-05

Note: attention shifts to another entry.
INPUT: # koff lookup, item TIGIT-F2-006 (antibody, V domains shown, mouse hybridoma antibody; variable domains as printed for TIGIT-CHI-006; tie rests on the number 006 only; also called mouse antibody TIGIT-006) VH: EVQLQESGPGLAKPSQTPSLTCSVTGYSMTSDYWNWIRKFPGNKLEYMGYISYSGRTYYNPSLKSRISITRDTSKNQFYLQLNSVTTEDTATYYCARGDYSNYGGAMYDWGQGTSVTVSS VL: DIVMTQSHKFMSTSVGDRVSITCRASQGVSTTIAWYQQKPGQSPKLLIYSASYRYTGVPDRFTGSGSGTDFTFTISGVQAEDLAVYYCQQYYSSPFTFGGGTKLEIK
OUTPUT: 3.32e-05
